Measured pIC50 of individual entries
system-tested: mGluR5 receptor (Sus scrofa)
Construct: from tissue; host or cells: pig brain halves without medulla, cerebellum and pons
Sequence (I3LUI7 19-1212): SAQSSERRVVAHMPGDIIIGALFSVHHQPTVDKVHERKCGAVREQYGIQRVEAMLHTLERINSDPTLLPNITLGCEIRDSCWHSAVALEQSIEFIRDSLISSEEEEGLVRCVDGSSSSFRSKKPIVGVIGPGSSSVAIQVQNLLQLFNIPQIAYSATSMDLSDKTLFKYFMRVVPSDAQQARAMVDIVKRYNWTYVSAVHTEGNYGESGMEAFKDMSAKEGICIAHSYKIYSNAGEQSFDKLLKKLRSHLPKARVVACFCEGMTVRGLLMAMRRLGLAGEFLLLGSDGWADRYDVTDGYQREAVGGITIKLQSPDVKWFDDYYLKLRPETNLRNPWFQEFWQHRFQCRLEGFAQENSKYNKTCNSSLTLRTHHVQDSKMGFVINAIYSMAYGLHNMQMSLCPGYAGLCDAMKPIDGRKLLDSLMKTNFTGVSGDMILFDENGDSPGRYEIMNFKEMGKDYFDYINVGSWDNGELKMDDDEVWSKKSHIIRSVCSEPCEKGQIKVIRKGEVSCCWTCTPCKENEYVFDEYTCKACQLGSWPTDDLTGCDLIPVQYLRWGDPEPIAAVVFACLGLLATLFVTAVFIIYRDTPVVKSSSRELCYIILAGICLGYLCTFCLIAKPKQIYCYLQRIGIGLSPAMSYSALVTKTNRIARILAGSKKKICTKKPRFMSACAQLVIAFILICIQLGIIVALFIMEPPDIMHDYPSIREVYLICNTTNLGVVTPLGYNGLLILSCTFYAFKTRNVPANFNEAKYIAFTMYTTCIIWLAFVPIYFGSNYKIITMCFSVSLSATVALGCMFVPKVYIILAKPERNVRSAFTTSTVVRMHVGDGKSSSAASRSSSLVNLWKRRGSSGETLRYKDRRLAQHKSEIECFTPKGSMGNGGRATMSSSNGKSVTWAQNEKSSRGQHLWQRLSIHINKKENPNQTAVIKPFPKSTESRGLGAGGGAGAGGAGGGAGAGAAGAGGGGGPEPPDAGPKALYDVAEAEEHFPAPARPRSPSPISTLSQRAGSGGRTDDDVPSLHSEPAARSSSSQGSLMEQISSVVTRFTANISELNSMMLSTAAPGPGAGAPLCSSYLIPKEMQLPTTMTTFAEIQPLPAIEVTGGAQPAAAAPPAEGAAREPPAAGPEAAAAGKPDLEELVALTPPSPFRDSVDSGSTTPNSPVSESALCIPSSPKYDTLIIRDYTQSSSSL
test-protocol: Inhibition of [3H]-MPEP bond in the mGluR5 receptor bond assay (pig brain homogenate)
Format: binding
test-conditions: 450 μg protein from pig brain homogenate, 5 nM [3H]-MPEP, 60 min, room temperature
Counter-ions that a name gives are not always drawn.
By convention, pIC50 is the negative base-10 log of a molar concentration.

Reference set, count: 4
O=C(C#Cc1ccccc1)N1CCN(c2cscn2)CC1; 6.20
Cn1ccnc1N1CCN(C(=O)C#Cc2ccccc2)CC1 [Example 3, hydrochloride]; 5.32
CN(CCNC(=O)C#Cc1cccc(Cl)c1)c1cncs1; 9.30
O=C(C#Cc1ccccc1)N1CCN(c2ccsc2)CC1 [Example 1, hydrochloride]; 5.72

Now for a further compound.
Query pIC50 for "CN(CCNC(=O)C#Cc1cccc(Cl)c1)c1nncs1"
7.68
